species: Rattus norvegicus; assay: DrugMatrix - Regimen: Daily Repeat; format: toxicity, organism-based, Sprague-Dawley; design: regimen Daily Repeat, gender Male, age 6-8 weeks; conditions: in vivo, po, 0 mg/kg, 72 h, tissue Blood, route oral GAVAGE, dose level Control, time 3 day, vehicle .5 % CMC
In this section we review reported MONOCYTE values for a set of compounds.
Unit % implied. Number only.

Consider the worked cases shown below.
compound: CC1CC(OC(=O)C(O)c2ccccc2)CC(C)(C)C1 (centres undefined) [CYCLANDELATE]
units-of-measure: %
MONOCYTE: 1.67

compound: C1CCC(C(CC2CCCCN2)C2CCCCC2)CC1 (centres undefined)
units-of-measure: %
MONOCYTE: 2.12

compound: N=C(N)NCCN1CCCCCCC1
units-of-measure: %
MONOCYTE: 1.67

compound: CCCN1C[C@H](CSC)C[C@@H]2c3cccc4[nH]cc(c34)C[C@H]21 [PERGOLIDE]
units-of-measure: %
MONOCYTE: 2.83

compound: CCOP(=S)(OCC)Oc1nc(Cl)c(Cl)cc1Cl
units-of-measure: %
MONOCYTE: 1.93

Could you tell me which MONOCYTE is on file for "O=C(CCCN1CC=C(n2c(=O)[nH]c3ccccc32)CC1)c1ccc(F)cc1" ?
2.13

Could you tell me which MONOCYTE is on file for "ClC(Br)Br" ?
6

Could you tell me which MONOCYTE is on file for "Cc1ccc2cc3c(ccc4ccccc43)c3c2c1CC3" ?
2.23

Could you tell me which MONOCYTE is on file for "OCCN(CCO)c1nc(N2CCCCC2)c2nc(N(CCO)CCO)nc(N3CCCCC3)c2n1" ?
1.67

// provenance: ChEMBL document CHEMBL3885881
